Just for reference, patent US20250242020A1 is where these values come from.

- subject of test: recombinant human ROR1 extracellular domain with a C-terminal 6xHis tag (human) (UniProt Q01973)
- Sequence (Q01973 other isoform, or with tags, fused parts or gaps): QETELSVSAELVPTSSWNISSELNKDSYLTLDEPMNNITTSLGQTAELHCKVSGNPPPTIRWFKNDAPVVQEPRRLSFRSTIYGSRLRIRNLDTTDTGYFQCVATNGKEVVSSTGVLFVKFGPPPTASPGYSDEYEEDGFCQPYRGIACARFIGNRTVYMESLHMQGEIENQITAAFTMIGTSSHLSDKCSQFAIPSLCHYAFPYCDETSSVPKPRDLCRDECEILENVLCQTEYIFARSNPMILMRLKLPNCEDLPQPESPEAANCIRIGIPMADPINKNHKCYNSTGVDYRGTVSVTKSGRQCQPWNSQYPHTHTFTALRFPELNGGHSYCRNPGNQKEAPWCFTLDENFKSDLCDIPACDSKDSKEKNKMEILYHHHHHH
- test protocol: SPR (Biacore), scFv-mFc captured on an anti-mouse IgG chip, ROR1 ECD 6xHis injected at 183, 61.0, 20.33, 6.78 and 2.26 nM, multi-cycle kinetics, 1:1 Binding model, 25 °C
measure name: koff (s⁻¹)

{"columns": ["binder", "measure name", "unit string", "endpoint value"],
 "data": [
  ["anti-ROR1 scFv ROR1-2 fused to murine IgG2a Fc (scFv-mFc) (Fc fusion, part only; not given: murine IgG2a Fc and junction, not shown: another chain or arm of the molecule; a dimerising Fc or GST) scFv: QLQLQESGPGLVKPSETLSLTCTVSGGSINSTTSYWAWIRQPPGKGLEWIGTIFYSGKTYNNPSLKSRVTMSVDTSKNHFSLKVNSVTAADTAVYYCARFDYGFHDAFDIWGQGTMVTVSSGGGGSGGGGSGGGGSEIVMTQSPATLSLSPGERATLSCRASQSITSDYLSWYQQKPGQAPRLLIYGASTRATGIPARFSGSGSGTDFTLTISSLQPEDFVVYYCQQDYNLYTFGQGTKLEIKR", "koff", "s⁻¹", "3.94e-05"]
]}
